Reference source: paper PMC9253517

# neutralisation IC50, Wuhan-Hu-1 pseudovirus per record follows
# system.name: SARS-CoV-2 Wuhan-Hu-1 RBD (SARS-CoV-2, Wuhan-Hu-1 (GenBank …, UniProt P0DTC2))
# procedure.text: cell-based or functional assay

JR204 (antibody, V domains shown) VH: QVQLQESDPGLVTPSETLSLTCTVSGASVSSGSDYWNWIRQPPGKGLEWIGYIYYTGRTNYNPSLKSRVTISVDTSKNQFSLKLSSVTAADTAVYYCAREVIVLPAALPPFGLDVWGQGTTVTVSS VL: SYELTQPPSVSVAPGKTARITCGGNNIGTKSVHWYQQKPGQAPVLVVYDDSDRPSGIPERFSGSNSENTATLTISRVEAGDEADYSCQVWDSSGDHVVFGGGTKLTVL	> 1 µg/mL
JR162 (antibody, V domains shown) VH: EVQLLESGGGLVQQGGSLRLSCAASGFTFSGHAMSWVRQAPGEGLEWVSGISDGGGSTYYADSVRGRFTISRDNSKNTLYLQMNSLRAEDTAVYYCARRGGYCTNTICYTRYYYMDVWGKGTTVTVSS VL: DIQMTQSPSSVSASVGDRVTITCRSSQDISSWLAWYQQKPGKAPKLLIFAASSLQSGVPSRFSGSGSGTDFTLTISSLQPEDFATYYCQQANSFPLTFGGGTKVEI	0.00455 µg/mL

Okay, next one:
stdin: What value of neutralisation IC50, Wuhan-Hu-1 pseudovirus has been recorded for this entry: JR340 (antibody, V domains shown) VH: EVQLVESGGGLVQPGRSLRLSCTASGFTFHDYALQWVRQVPGKGLEWVSGISWNSASTGYADSVKGRFTISRDNAKNSLYLQMNSLRAEDTALYYCAKVRSTSCYLACGMDVWGQGTTVTVSS VL: QSALTQPASVSGSPGQSITISCTGTSSDVGSYNLVSWYQQHPGKAPKLMISEVSKRPSGVSNRFSGSKSGNTASLTISGLQAEDEADYYCCSYALSRILFGGGTKLTVL
stdout: > 1 µg/mL
